System: PRKR
Construct: gene EIF2AK2
Test Settings: concentration: 1 μM, replicates: in singlicate; n = 1;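 note: KINOMEscan kinase panel screen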
A collection of molecules and their measured %Inh
Recorded Metric: %Inh (%)

Molecule: CCCc1ccc(S(=O)(=O)NC2CCN(c3ccnc(Nc4ccc(OC)cc4)n3)C2)cc1 (stereo not shown)
Numeric Result: 0

Molecule: COc1ccc(Nc2nccc(N3CCC(NC(=O)c4cccc(NC(C)=O)c4)C3)n2)cc1 (stereo not shown)
Numeric Result: 0

Molecule: C[C@@H]1CCN(C(=O)CO)C[C@@H]1N(C)c1ncnc2[nH]ccc12
Numeric Result: 0

Molecule: O=C(c1ccc(-c2cc(-c3c[nH]nc3-c3ccccn3)ccn2)cc1)N1CCCC1
Numeric Result: 4

Molecule: FC(F)(F)c1ccc(-c2nn3ncccc3c2-c2ccnc(Nc3cccc(C(F)(F)F)c3)n2)cc1
Numeric Result: 0

Molecule: CCc1nc(-c2cccc(C)c2)c(-c2ccnc(NC(=O)c3ccccc3)c2)s1
Numeric Result: 0

Molecule: CN1CCC(n2cnc(-c3ccc(F)cc3)c2-c2ccnc(NC3CCNCC3)n2)CC1
Numeric Result: 0

###

Tested on: GCN2(Kin.Dom.2,S808G)
Construct: gene EIF2AK4
Test Settings: concentration: 1 μM, replicates: in singlicate; n = 1

Compound: O=C(Nc1ccccc1)Nc1ccc(Oc2ccc3nccn3n2)cc1
%Inh [%]: 16

Compound: O=C(NCCCN1CCCC1=O)c1cnc(NCc2cc(Cl)ccc2Cl)nc1NC1CCNCC1
%Inh [%]: 0

Compound: O=C(Nc1ccccc1F)NC1CCN(c2ccnc(Nc3ccc(F)cc3)n2)C1 (stereo not shown)
%Inh [%]: 4

Compound: Nc1nc(-c2cccnc2)c(-c2ccnc3ccccc23)s1
%Inh [%]: 24

###

Test system: IKK-epsilon
Construct: gene IKBKE
Test Settings: concentration: 1 μM, replicates: in singlicate; n = 1
A collection of molecules and their measured %Inh

Molecule: Cn1ccc2ncnc(Oc3ccc(NC(=O)Nc4cccnc4)c(Cl)c3)c21
Target Desc: IKK-epsilon
%Inh / %: 0
//
Molecule: OCCOCCn1ccc2ncnc(Nc3ccc(Oc4cccc(Cl)c4)c(Cl)c3)c21
Target Desc: IKK-epsilon
%Inh / %: 0
//
Molecule: O=C(Nc1ccccc1)Nc1ccc(Oc2ccc3nccn3n2)cc1
Target Desc: IKK-epsilon
%Inh / %: 0
//
Molecule: Nc1nccc2scc(-c3ccc4c(c3)CCN4C(=O)Cc3cc(F)ccc3F)c12 [GSK2587663]
Target Desc: IKK-epsilon
%Inh / %: 5
//
Molecule: Cl.Cn1ccc(-c2cccc(Nc3ccnc4cc(-c5nccs5)ccc34)c2)n1 [GW525701]
Target Desc: IKK-epsilon
%Inh / %: 31
//
Molecule: CCCc1ccc(S(=O)(=O)NC2CCN(c3ccnc(Nc4ccc(OC)cc4)n3)C2)cc1 (stereo not drawn) [GSK1379737]
Target Desc: IKK-epsilon
%Inh / %: 0

###

Tested on: DDR2
Test Settings: concentration: 1 μM, replicates: in singlicate; n = 1
Assign 1 to entries whose %Inh meets or exceeds 7%; assign 0 to the rest.

Smiles Data: Cl.Cn1ccc(-c2cccc(Nc3ccnc4cc(-c5nccs5)ccc34)c2)n1
Target Desc: DDR2
Group: 1
//
Smiles Data: Cl.c1ccc(Cn2ncc3cc(Nc4ncnc5ccccc45)ccc32)cc1
Target Desc: DDR2
Group: 0
//
Smiles Data: Cn1ccc2ncnc(Nc3ccc(Oc4cccc(Cl)c4)c(Cl)c3)c21
Target Desc: DDR2
Group: 0
//
Smiles Data: COc1cc2ncnc(Nc3ccc(OCc4ccccc4Br)c(Cl)c3)c2cc1OC.Cl
Target Desc: DDR2
Group: 1
//
Smiles Data: COC(=O)c1c(-c2ccccc2)c2cc(Cl)ccc2c(=O)n1Cc1ccc(S(C)(=O)=O)cc1
Target Desc: DDR2
Group: 0

###

A collection of compounds and their measured %Inh
Test system: CHEK2
Test Settings: concentration: 1 μM, replicates: in singlicate; n = 1
Recorded Metric: %Inh (%)

Smiles Data: CC(C)(C)c1ccc(-n2cnc3c(N)ncnc32)cc1
Recorded Metric: %Inh
Numeric Result: 0
--
Smiles Data: CCC(CC)(CC)n1cnc2c(N)ncnc21
Recorded Metric: %Inh
Numeric Result: 0
--
Smiles Data: COC(=O)c1c(-c2ccccc2)c2cc(Cl)ccc2c(=O)n1Cc1ccc(S(C)(=O)=O)cc1
Recorded Metric: %Inh
Numeric Result: 10

###

System: WEE2
Test Settings: concentration: 1 μM, replicates: in singlicate; n = 1

Compound: Nc1nc(-c2ccccn2)c(-c2ccnc3ccccc23)s1
Unit Annotation: %
%Inh: 0
//
Compound: N#Cc1ccc(Oc2ccc(Nc3ncnc4cc[nH]c34)cc2Cl)cc1
Unit Annotation: %
%Inh: 8
//
Compound: c1ccc(-c2ccc3c(-c4ccnc(Nc5ccc6c(c5)OCCO6)n4)cnn3n2)cc1
Unit Annotation: %
%Inh: 0
//
Compound: Fc1ccc(Nc2nccc(-c3c(-c4ccc(Cl)cc4)nn4ncccc34)n2)cc1F
Unit Annotation: %
%Inh: 2
//
Compound: Nc1nc(-c2ccc3c(N)n[nH]c3c2)cc(N2CCC[C@@H](C(=O)Nc3ccccc3)C2)n1.O=C(O)C(F)(F)F.O=C(O)C(F)(F)F
Unit Annotation: %
%Inh: 0
//
Compound: Clc1ccc(-c2cc(-c3c[nH]nc3-c3ccccn3)ccn2)cc1
Unit Annotation: %
%Inh: 0
//
Compound: Cc1cccc(-c2nc(Nc3ccc4[nH]nnc4c3)c3ccccc3n2)n1
Unit Annotation: %
%Inh: 0
//
Compound: O=C(Nc1ccccc1)Nc1ccc(Oc2ccc3nccn3n2)cc1
Unit Annotation: %
%Inh: 13
//
Compound: Cc1cc(N2CCC(NS(=O)(=O)c3ccc(F)cc3)CC2)nc(Nc2cccc(C#N)c2)n1.O=C(O)C(F)(F)F
Unit Annotation: %
%Inh: 15
//
Compound: CCCc1ccc(S(=O)(=O)NC2CCN(c3ccnc(Nc4ccc(OC)cc4)n3)C2)cc1 (centres unmarked)
Unit Annotation: %
%Inh: 0
//
Compound: Clc1cc(Nc2ncnc3cc[nH]c23)ccc1OCc1ccccn1
Unit Annotation: %
%Inh: 0

###

A collection of compounds and their measured %Inh
Test system: ACVR2A
Test Settings: concentration: 1 μM, replicates: in singlicate; n = 1

Compound: O=c1cc(N2CCOCC2)nc2n(Cc3cccc(Cl)c3)ccn12
%Inh: 0%
--
Compound: CS(=O)(=O)CCNCc1ccc(-c2ccc3ncnc(Nc4ccc(OCc5ccccc5)c(Cl)c4)c3c2)o1.Cl
%Inh: 4%
--
Compound: CCn1c(-c2ccncc2)nc2cnccc21
%Inh: 0%
--
Compound: Fc1cccc(COc2ccc(Nc3ncnc4nn5ccccc5c34)cc2Cl)c1
%Inh: 0%
--
Compound: COC(=O)c1c(-c2ccccc2)c2cc(Cl)ccc2c(=O)n1Cc1ccc(S(C)(=O)=O)cc1
%Inh: 0%
--
Compound: CN1CCC(n2cnc(-c3ccc(F)cc3)c2-c2ccnc(NC3CCNCC3)n2)CC1
%Inh: 0%
--
Compound: FC(F)(F)c1ccc(-c2nn3ncccc3c2-c2ccnc(Nc3cccc(C(F)(F)F)c3)n2)cc1
%Inh: 6%
--
Compound: O=C(Nc1ccccc1F)NC1CCN(c2ccnc(Nc3ccc(F)cc3)n2)C1 (stereo not shown)
%Inh: 0%
--
Compound: Fc1cccc(COc2ccc(Nc3ncnc4cc[nH]c34)cc2Cl)c1
%Inh: 0%
--
Compound: Nc1n[nH]c2nnc(-c3ccccc3)cc12
%Inh: 0%

###

A collection of compounds and their measured %Inh
Test system: MAK
Test Settings: concentration: 1 μM, replicates: in singlicate; n = 1

Smiles Data: Cc1ccc(O)cc1Nc1cc(C(F)(F)F)nc2ccc(-c3ccncc3)cc12
Target Desc: MAK
Unit Annotation: %
%Inh: 7

Smiles Data: Fc1ccc(-c2ncn(CCCNCc3ccccc3)c2-c2ccncc2)cc1
Target Desc: MAK
Unit Annotation: %
%Inh: 5

Smiles Data: COc1ccc(NC(=O)c2ccc(-c3cc(-c4nnc(C)o4)ccc3C)cc2)cc1
Target Desc: MAK
Unit Annotation: %
%Inh: 47

###

Test system: CHEK2
Test Settings: concentration: 1 μM, replicates: in singlicate; n = 1

Smiles Data: CC(=O)Nc1n[nH]c2ncc(-c3ccccc3)cc12
%Inh (%): 1
//
Smiles Data: C[C@@H]1CCN(C(=O)CO)C[C@@H]1N(C)c1ncnc2[nH]ccc12
%Inh (%): 1
//
Smiles Data: Fc1ccc(Nc2nccc(-c3c(-c4ccc(Cl)cc4)nn4ncccc34)n2)cc1F
%Inh (%): 1

###

Test system: PIKFYVE
Test Settings: concentration: 1 μM, replicates: in singlicate; n = 1
Recorded Metric: %Inh (%)

Compound: Nc1nc(-c2cccnc2)c(-c2ccnc3ccccc23)s1 [GW684083]
Unit Annotation: %
Numeric Result: 12
//
Compound: Cl.O=S(=O)(c1cccc(F)c1)c1ccc(Nc2ncnc3cc(Br)sc23)cc1Cl [GSK306886]
Unit Annotation: %
Numeric Result: 0
//
Compound: CC(=O)Nc1n[nH]c2ncc(-c3ccccc3)cc12 [SB-548492]
Unit Annotation: %
Numeric Result: 0

###

Test system: BRSK1
Test Settings: concentration: 1 μM, replicates: in singlicate; n = 1

Molecule: COc1ccc(-c2nc3n(c2-c2ccncc2)CCC3)cc1
Unit Annotation: %
%Inh: 0
--
Molecule: COc1ccc(NC(=O)Nc2ccc(C)c(-c3ccc(C(=O)Nc4ccncc4)cc3)c2)cc1
Unit Annotation: %
%Inh: 0
--
Molecule: Clc1ccc(-c2cc(-c3c[nH]nc3-c3ccccn3)ccn2)cc1
Unit Annotation: %
%Inh: 0
--
Molecule: OCCOCCn1ccc2ncnc(Nc3ccc(Oc4cccc(Cl)c4)c(Cl)c3)c21
Unit Annotation: %
%Inh: 0
--
Molecule: CC(=O)Nc1n[nH]c2ncc(-c3ccccc3)cc12
Unit Annotation: %
%Inh: 21
--
Molecule: Cc1cc(N2CCC(NS(=O)(=O)c3ccc(F)cc3)CC2)nc(Nc2cccc(C#N)c2)n1.O=C(O)C(F)(F)F
Unit Annotation: %
%Inh: 7
--
Molecule: Fc1cccc(COc2ccc(Nc3ncnc4cc[nH]c34)cc2Cl)c1
Unit Annotation: %
%Inh: 2
--
Molecule: O=C(CCO)NCCn1ccc2ncnc(Nc3ccc(Oc4cccc(C(F)(F)F)c4)c(Cl)c3)c21
Unit Annotation: %
%Inh: 0
--
Molecule: COc1ccc(Nc2nccc(N3CCC(NC(=O)Nc4ccc5c(c4)OCO5)C3)n2)cc1 (centres unmarked)
Unit Annotation: %
%Inh: 0
--
Molecule: COc1ccc(-c2oc3ncnc(N)c3c2-c2ccc(OC)cc2)cc1
Unit Annotation: %
%Inh: 12
--
Molecule: COc1ccc(Nc2nccc(N3CCC(NC(=O)c4cccc(NC(C)=O)c4)C3)n2)cc1 (centres unmarked)
Unit Annotation: %
%Inh: 0
--
Molecule: Nc1nc(-c2ccc3c(N)n[nH]c3c2)cc(N2CCCCC2)n1
Unit Annotation: %
%Inh: 5
--
Molecule: c1ccc(-c2ccc3c(-c4ccnc(Nc5ccc6c(c5)OCCO6)n4)cnn3n2)cc1
Unit Annotation: %
%Inh: 0
--
Molecule: Nc1nc(-c2ccccn2)c(-c2ccnc3ccccc23)s1
Unit Annotation: %
%Inh: 0
--
Molecule: CCc1nc(-c2cccc(N(C)S(=O)(=O)c3ccccc3)c2)c(-c2ccnc(Nc3ccc(N4CCN(C(C)=O)CC4)nc3)n2)s1
Unit Annotation: %
%Inh: 0
--
Molecule: Cn1ccc2ncnc(Oc3ccc(NC(=O)Nc4cccnc4)c(Cl)c3)c21
Unit Annotation: %
%Inh: 6
--
Molecule: O=C(Nc1ccccc1)Nc1ccc(Oc2ccc3nccn3n2)cc1
Unit Annotation: %
%Inh: 0
--
Molecule: CS(=O)(=O)CCNCc1nc(-c2ccc3ncnc(Nc4ccc(OCc5cccc(F)c5)c(Cl)c4)c3c2)cs1.Cl
Unit Annotation: %
%Inh: 0
--
Molecule: Cc1cccc(-c2nc(Nc3ccc4[nH]nnc4c3)c3ccccc3n2)n1
Unit Annotation: %
%Inh: 0
--
Molecule: O=C(Nc1ccccc1F)NC1CCN(c2ccnc(Nc3ccc(F)cc3)n2)C1 (centres unmarked)
Unit Annotation: %
%Inh: 17
--
Molecule: NC(=O)c1sc(-n2cnc3ccccc32)cc1OCc1ccccc1F
Unit Annotation: %
%Inh: 5
--
Molecule: Cc1ccc(C)c(NC(=O)NCCNc2ccnc(Nc3ccc(F)cc3)n2)c1
Unit Annotation: %
%Inh: 0
--
Molecule: CNc1nccc(-c2c(-c3ccc(F)cc3)ncn2CCCN2CCOCC2)n1
Unit Annotation: %
%Inh: 0
--
Molecule: CC(C)(C)c1ccc(-n2cnc3c(N)ncnc32)cc1
Unit Annotation: %
%Inh: 18
--
Molecule: O=C(c1ccc(-c2cc(-c3c[nH]nc3-c3ccccn3)ccn2)cc1)N1CCCC1
Unit Annotation: %
%Inh: 0
--
Molecule: Fc1ccc(Nc2nccc(-c3c(-c4ccc(Cl)cc4)nn4ncccc34)n2)cc1F
Unit Annotation: %
%Inh: 0
--
Molecule: FC(F)(F)c1ccc(-c2nn3ncccc3c2-c2ccnc(Nc3cccc(C(F)(F)F)c3)n2)cc1
Unit Annotation: %
%Inh: 0
--
Molecule: COC(=O)c1cccc(NC(=O)NCCNc2ccnc(Nc3ccc(F)cc3)n2)c1
Unit Annotation: %
%Inh: 0
--
Molecule: Nc1nc(-c2cccnc2)c(-c2ccnc3ccccc23)s1
Unit Annotation: %
%Inh: 10
